Ratio Ki overview
Molecular target: Serotonin 2 receptors; 5-HT2a & 5-HT2c (Homo sapiens) (UniProt P28223+P28335)
Sequence (P28223 whole entry, looked up): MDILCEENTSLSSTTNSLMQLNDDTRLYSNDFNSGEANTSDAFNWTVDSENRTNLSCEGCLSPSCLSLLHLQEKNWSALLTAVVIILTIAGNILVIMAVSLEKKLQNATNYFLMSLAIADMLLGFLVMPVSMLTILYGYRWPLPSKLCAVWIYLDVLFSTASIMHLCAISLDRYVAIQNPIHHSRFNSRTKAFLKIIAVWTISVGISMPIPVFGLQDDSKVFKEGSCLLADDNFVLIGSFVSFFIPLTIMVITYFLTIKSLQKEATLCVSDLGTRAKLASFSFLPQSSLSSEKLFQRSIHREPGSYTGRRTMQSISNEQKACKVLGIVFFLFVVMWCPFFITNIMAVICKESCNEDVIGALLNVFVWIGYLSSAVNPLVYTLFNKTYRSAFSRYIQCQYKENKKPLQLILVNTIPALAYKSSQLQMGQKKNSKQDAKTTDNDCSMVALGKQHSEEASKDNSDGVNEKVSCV
Sequence (P28335 whole entry, looked up): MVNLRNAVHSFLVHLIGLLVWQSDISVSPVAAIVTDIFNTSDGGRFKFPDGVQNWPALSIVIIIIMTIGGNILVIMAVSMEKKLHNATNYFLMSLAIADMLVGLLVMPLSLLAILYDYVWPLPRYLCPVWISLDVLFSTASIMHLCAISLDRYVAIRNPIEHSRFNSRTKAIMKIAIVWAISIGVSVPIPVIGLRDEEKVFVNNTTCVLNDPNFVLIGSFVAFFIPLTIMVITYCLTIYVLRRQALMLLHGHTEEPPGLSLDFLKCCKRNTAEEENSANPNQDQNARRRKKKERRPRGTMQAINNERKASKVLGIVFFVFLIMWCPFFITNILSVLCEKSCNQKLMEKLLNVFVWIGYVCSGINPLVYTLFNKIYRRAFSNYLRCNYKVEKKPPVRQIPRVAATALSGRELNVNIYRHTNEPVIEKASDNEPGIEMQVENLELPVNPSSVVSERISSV
Assay: Selectivity for human 5HT2A to human 5HT2C

- Smiles repr: "CCc1cc2c(ccc3c(OC)nn(C[C@H](C)N)c32)o1"
  Ratio Ki: 3
- Smiles repr: "C[C@H](N)Cn1ncc2ccc(F)cc21"
  Ratio Ki: 3
- Smiles repr: "CCCc1nn(C[C@H](C)N)c2c1ccc1occc12"
  Ratio Ki: 3

* * *

Target: 5-hydroxytryptamine receptor 2A (Homo sapiens, UniProt P28223)
Category | rule: reported Ki within range, see bin 0 (below 10 nM), bin 1 (10 nM to below 50 nM), bin 2 (50 nM or more)

- Smiles repr: "C[C@H](N)Cn1ncc2ccc(Cl)c(Cl)c21"
  Class: "bin 0"
- Smiles repr: "CCc1cc2c(ccc3c(OC)nn(C[C@H](C)N)c32)o1"
  Class: "bin 1"
- Smiles repr: "C[C@H](N)Cn1ccc2cc(F)c(Cl)cc21"
  Class: "bin 1"
- Smiles repr: "CCc1cc2c(ccc3c(C)nn(C[C@H](C)N)c32)o1"
  Class: "bin 1"
- Smiles repr: "Cc1nn(C[C@H](C)N)c2c1ccc1occc12"
  Class: "bin 1"
- Smiles repr: "COc1ccc2cnn(C[C@H](C)N)c2c1"
  Class: "bin 1"
- Smiles repr: "C[C@H](N)Cn1ncc2ccc3occc3c21"
  Class: "bin 0"
- Smiles repr: "C[C@H](N)Cn1ncc2ccc(F)cc21"
  Class: "bin 2"
- Smiles repr: "Cc1cc2c(ccc3cnn(C[C@H](C)N)c32)o1"
  Class: "bin 0"
- Smiles repr: "CC(C)c1cc2c(ccc3cnn(C[C@H](C)N)c32)o1"
  Class: "bin 2"
- Smiles repr: "C[C@H](N)Cn1ncc2cc(Cl)c(Cl)cc21"
  Class: "bin 1"
- Smiles repr: "C[C@H](N)Cn1ncc2ccc3ocnc3c21"
  Class: "bin 1"
